system: UACC-257; experiment: NCI tumour cell line growth inhibition, 48 h
The source made the active and inactive calls. Cut-off read from the data, not from the text of the source: active = GI50 up to about 1.1 µM and inactive = higher.
property: GI50

Give measured GI50 for every item shown.
1. O=C1c2ccccc2-n2c1nc1ccccc1c2=O
2. CCOC(=O)c1c(N)sc2c1C(C(=O)OCC)CCC2 (stereo unspecified)
3. N#CCOc1ccc(/C=C/C(=O)c2ccc(Cl)cc2)cc1
4. COc1ccc(Cl)cc1NC(=O)O/N=C(\Cl)C(C)C
5. COc1ccc(N2C(=O)CC(c3c[nH]c4ncccc34)C2=O)cc1 (stereo unspecified)
6. O=C(O)CN(CC(=O)O)C(C(=O)O)c1ccccc1 (stereo unspecified)

## Output
["3.02 µM (inactive)", "> 100 µM (inactive)", "32 µM (inactive)", "17.1 µM (inactive)", "19.3 µM (inactive)", "> 100 µM (inactive)"]

Data provenance: ChEMBL document CHEMBL1201862
